pKd by entry:
target-or-system: T1, Rb^P S751C (human, UniProt P06400 380-788, S751C)
T1 construct: also called variant 71
T1 sequence (looked up): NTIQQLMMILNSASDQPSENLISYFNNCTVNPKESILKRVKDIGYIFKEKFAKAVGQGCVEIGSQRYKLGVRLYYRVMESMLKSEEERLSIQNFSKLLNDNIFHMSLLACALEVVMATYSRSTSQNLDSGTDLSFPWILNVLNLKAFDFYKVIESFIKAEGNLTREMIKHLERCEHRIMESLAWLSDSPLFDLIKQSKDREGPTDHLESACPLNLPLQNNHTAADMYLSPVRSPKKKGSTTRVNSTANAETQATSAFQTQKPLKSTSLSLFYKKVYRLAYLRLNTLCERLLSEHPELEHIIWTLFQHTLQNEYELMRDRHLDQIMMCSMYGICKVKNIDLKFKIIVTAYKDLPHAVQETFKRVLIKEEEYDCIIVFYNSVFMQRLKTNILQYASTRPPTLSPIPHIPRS
protocol-summary: fluorescence polarisation; 25 °C; unlabeled Rb^P titrated against 1.5 nM TMR-E2F1^TD or 7.5 nM TMR-E7^LxCxE; 25 mM Tris pH 8.0, 200 mM NaCl, 1 mM DTT, 0.1% Tween-20; 2 min incubation; quadratic fit; apparent Kd for the variants, Kd for WT
condition-notes: both partners purified
pKd: −log10 of the molar value. No end group written: not given here. TMR = tetramethyl rhodamine dye
property-name: pKd

DLYCYEQLN (also: TMR label, position not given here, source: synthetic peptide, bought: GenScript) [TMR-E7^LxCxE, LxCxE peptide of the E7 oncoprotein from HPV] ... 7.36
{TMR}-GEGIRDLFDCDFGDLTPLD (also called E2F^TD; source: synthetic peptide, bought: GenScript) [TMR-E2F1^TD, peptide of the E2F1 transactivation domain] ... 7.18
